molecular target: Cytochrome P450 1A2 (Homo sapiens) (UniProt P05177); experiment: Cytochrome panel assay with activity outcomes; conditions: recombinant CYP, pro-luciferin dealkylation, luminescence, p450-cyp1a2; series mostly up to 57.1 µM
Sequence (P05177 whole entry, looked up): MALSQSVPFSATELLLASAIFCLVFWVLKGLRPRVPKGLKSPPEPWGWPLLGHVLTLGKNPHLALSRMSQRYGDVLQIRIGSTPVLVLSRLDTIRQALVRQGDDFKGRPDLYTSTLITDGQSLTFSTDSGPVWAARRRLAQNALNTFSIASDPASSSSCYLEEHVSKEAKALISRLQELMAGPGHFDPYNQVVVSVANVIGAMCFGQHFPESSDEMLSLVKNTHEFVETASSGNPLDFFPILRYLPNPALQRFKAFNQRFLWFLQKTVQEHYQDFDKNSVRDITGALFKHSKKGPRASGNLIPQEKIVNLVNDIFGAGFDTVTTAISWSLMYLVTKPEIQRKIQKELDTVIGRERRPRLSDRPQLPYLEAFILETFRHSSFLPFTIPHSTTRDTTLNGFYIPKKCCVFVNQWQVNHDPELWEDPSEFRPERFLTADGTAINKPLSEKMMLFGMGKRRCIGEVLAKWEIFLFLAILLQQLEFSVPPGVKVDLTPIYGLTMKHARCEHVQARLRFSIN
The whole screen tested about 16,000 compounds, of which about 5,700 (36%) were called active. About 24% were inconclusive and are not listed. Some of the results follow.
reported property: AC50

[[record]]
compound = "COc1ccc(S(N)(=O)=O)cc1C(=O)NCCCN1CCN(c2ccc(C)cc2)CC1"
observed_result = "inactive"

[[record]]
compound = "CCOC(=O)C1CCCN(C(=O)c2sc3nc(-c4ccc(OC)cc4)cn3c2C)C1 (stereo not given)"
observed_result = "20 µM (active)"

[[record]]
compound = "CN1CCN(C(c2ccccc2)c2ccccc2)CC1"
observed_result = "inactive"

[[record]]
compound = "C[N+](C)(CCCCCC[N+](C)(C)CCCN1C(=O)c2cccc3cccc(c23)C1=O)CCCN1C(=O)c2cccc3cccc(c23)C1=O"
observed_result = "inactive"

[[record]]
compound = "Cc1c(Cl)cccc1NC(=O)CC1NCCNC1=O (stereo not given)"
observed_result = "inactive"

[[record]]
compound = "COc1ccc(-c2noc(N(C)CC(=O)Nc3cccc(C(F)(F)F)c3)n2)cc1"
observed_result = "5.01 µM (active)"

[[record]]
compound = "COC(=O)N/N=C\\C=C\\c1ccc2c(c1)OCO2"
observed_result = "inactive"

[[record]]
compound = "Cc1noc(C)c1-c1nc(N2CCN(C)CC2)c2ccccc2n1"
observed_result = "0.316 µM (active)"

[[record]]
compound = "Cc1cc(O)c(C(C)C)cc1N=Cc1ccccc1O"
observed_result = "1.58 µM (active)"

[[record]]
compound = "CCOC(=O)c1sc(NC(=O)CCCCCN2C(=O)c3cccc4cccc(c34)C2=O)nc1C"
observed_result = "25.1 µM (active)"

